- assay: yeast display, Sf9 membrane polyspecificity reagent, FACS + sequencing; frameworks hold sequencing errors

primary_sequence	polyreactivity (PSR sort gate)
QVQLVESGGGLVQAGGSLRLSCAASGSTFYYNAMGWYRQAPGKERELVAAISGSGGSTYYADSVKGRFTISRDNAKNTVYLQMNSLKPEDTAVDYCAALYGPGREYDYWGQGTQVTVSS	low polyreactivity
QVQLVESGGGLVQAGGSLRLSCAASGSILYINTMGWYRQAPGKERELVAAITYSGGSTYYADSVKGRLTISRDNAKNTVYLQMNRLKPEDTAVYYCAADGYYGGYNYWGQGTQVTVSS	low polyreactivity
QVQLVESGGGLVQAGGSLRLSCAASGRSFIENVKGWYRQAPGKERELVAAIRSAGTTYNADSVKGRFTISRDNAKNTVYLQMNSLKPEDTAVDYCAATNRYYWSYFYQSKYGYWGQGTQVTVSS	low polyreactivity
QVQLVESGGGLVQAGGSLRLSCPASGFTFGSYAMGWYRQAPGKETEFVAVITRSGRTNYADSVKGRFTISRDNAKNTVYLQMNSLKPEDTAVYYCYADDVDDEVSPDLTEMDYWGQGTQVTVSS	low polyreactivity
QVQLVESGGGLVQAGGSLRLSCAASGRTFGTNAMVWYRQAPGKERELVAAITWRGGSTSYADSVKGRFTISRDNAKNTVYLQMNSLKPEDSAVYYCAVRLRYPGNTFYYWGQGTQVTVSS	high polyreactivity
QVQLVESGGGLVQAGGSLRLSCAASGRIFSYYAMGWYRQAPGKERELVATISGSGGSTYYADSVKGRFTISRDNAKNTVFLQMNSLKPEDTAVYYCAATGFIFRGRVRAIPRRYNYWGQGTQVTVSS	high polyreactivity
QVQLVESGGGLVQAGGSLRLSCAASGNNLCRNAMGWYRQAPGKERELVATISSVGTYYADSVKGRFTISRDNAKNNVYVQMNSLKPEDTAVYSCNARGRRSGYISGYDYWGQGTQVTVSS	high polyreactivity
QVQLVESGGGLVQAGGSLRLSCAASGSTSQPYAMGWYRQAPGKERELVASITNGGITYYADSVKGRFTISRDNAKNTVYLQMNSLKPEDTAVYYCNADNVFEGYDRRSARASYRYYYWGQGTQVTVSS	low polyreactivity
QVQLVESGGGLVQAGGSLRLSCAASGFTFNFYAMRWYRQAPGKERELVAAITASGVRRYYADSVKGRFTISRDNAKNTVYLQMNSLKPEDTAVYYCNTYMYRNKSGYDYWGQGTQVTVSS	high polyreactivity
QDQHVESGGGLVQAGGSLRLSCAASGSIFDVYTMGWYRQAPGKERELVAAINTGGGSTYYADSVKGRFTISRDKAKNTVYLQMNSLKPEDTAVYYCAASVYHYGPLYYWGQGTQVTVSS	low polyreactivity
QLQLQEGGGGLLQAGGSLRLSCAASGYISYGDVMGWYRQAPGEERELVASIGLDATTNYADSVKGRFTISRDNSKNTVYLQMNSLKPEDTAVYYCPADRGAPFSLHYWGQGTQVTVSS	high polyreactivity
QVQLEQSGGGLVQAGGSLRLSCAASGRTFVSNAMGWYRQAPGKERELVADITSGGSTDYADSVKGRFTISRDNANNTVYLQMNSLKPEDTAVYYCATDLWRWYGWFDYWGQGTQVTVSS	low polyreactivity
QVQLVESGGGLVQAGGSLRLSCAASGSTFKRYAMGWYRQAPGKERELVAAISTRGSTYYADSVKGRFTISRDNAKNTVYFQMNSLKPEDTAVYYCIARQALVWKWYWYSPGYDYWGQGTQVTVSS	low polyreactivity
QVQLVESGGGLVQAGGSLRLSCAASGLIFRYNAMGWYRQAPGKERELVAAISRSGGTTYYADSVKGRFTISRDNAKNTVYLQMNSLKPEDTAVYYCATRISQSYYNYGYWGQGTQVTVSS	high polyreactivity
QVQLVESGGCLGQAGGSLRLTCAASAFTFRHYTKGWYRQAPGKVRVLVAVITRSGGSTYYADSVKGRFTISRDNAKNTVYLQMNRLKPEDTAVYYCAARYKREYNYWGQGTQVTVSS	high polyreactivity
QVQLVESGGGLVQAGGSLRLSCAASRRIFSRYAMGWYRQAPGKERELVAAITGRGGSTYYADSVKGRFTISRDNAKNTVYLQMNSLKPEDTAVYYCAADVPPRRNFVKYYYWGQGTQVTVSS	high polyreactivity
QVQLVESGGGLVQAGGSLRLSCAASGRTFTVYAMGWYRQAPGKERELVAAISSGGITYYADSVKGRFTISRDNAKNTVYLQMNSLKPEDTAVYYCNTKSGKARYVFGYWGQGTQVTVSS	low polyreactivity
QVQLVESGGGLVQAGGSLRLSCAASGSTFRINAMGWYRQAPGKERELVAAITSGGSTKYADSVKGRFTISRDNAKNTVYLQMNSLKPEDTAVYYCNKQGYPYRYFAWYPGYNYWGQGTQVTVSS	low polyreactivity
QVQLVESGGGLVQAGGSLRLSCAASGFTFVSYAMGWYRQEPGKEREFVASISARGGNTFYADSVKGRFTISRDNAKNTVYLQMNSLKPEDTAVYYCAKRGPYGTGYGYWGQGTQLTVSS	high polyreactivity
QVQLVESGGGLVQAGGSLRLSCAASGRIFVTYAMGWYRQAPGKERELVASISRSGGRTYYADSVKGRFTISRDNAKNTVYLQMNSLKPEDTAVYYCNADQEGYQQYFYLGSPYDYWGQGTQVTVSS	low polyreactivity
QVQLVESGGGLVQAGGSLRLSCAASGSTFAQYAMGWYRQAPGKEREFVAAITRGGGRTYYADSVKGRFTISRDNAKNSVYLQMNSLKPEDTAVYYCNAVYRYYPFDYWGQGTQVTVSS	high polyreactivity
